Test system: SNB-78 CNS
Assay: NCI tumour cell line growth inhibition, 48 h
Listing: TGI of selected molecules

Example molecules with recorded TGI:
- molecule: "CC1=NN(C(=O)Cc2ccccc2)C(=O)/C1=C\\c1ccc(O)cc1"
  quantity: "TGI"
  result: "> 100 µM"
- molecule: "N#CC(C(=O)C(=O)Nc1c(Cl)cccc1Cl)c1ccccc1 (stereo not drawn)"
  quantity: "TGI"
  result: "> 100 µM"

Req: Which TGI is listed for `CC1=N/C(=C\c2ccc(/C=C3/N=C(C)OC3=O)cc2)C(=O)O1` ?
Resp: > 100 µM

====

Tested on: NCI-H522 lung
Test: NCI tumour cell line growth inhibition, 48 h; in the data active means GI50 below about 0.43 µM; inactive means the rest
Outcome field: choose from active, inactive

Here are 5 molecules together with their reported answers.
- molecule: "Cc1ccc2c(-c3ccnc(Nc4ccc5c(c4)OCCO5)n3)c(-c3ccc(C(F)(F)F)cc3)nn2n1"
  class-name: "inactive"
- molecule: "FC(F)(F)Oc1cccc(-c2cc(NCCCCCCNc3cc(-c4cccc(OC(F)(F)F)c4)nc4ccc(N5CCCC5)cc34)c3cc(N4CCCC4)ccc3n2)c1"
  class-name: "inactive"
- molecule: "COc1ccc(C(=O)c2cc(OC)c(OC)c(OC)c2OC)cc1O"
  class-name: "inactive"
- molecule: "CCN(CC)CCCNc1ccc(C)c2sc3ccccc3c(=O)c12"
  class-name: "inactive"
- molecule: "Cc1ccc(O)cc1Nc1ccnc2ccc(S(C)(=O)=O)cc12"
  class-name: "inactive"

Req: Entry `CCN=c1sc2c(n1NC(=O)c1cc3ccc1CCc1ccc(cc1)CC3)C(=O)c1ccccc1C2=O` : call = ?
Resp: inactive

Req: Now consider CCN1C(=S)N(CC)C2C1NC(=S)N2/N=C/C=C/c1ccccc1OC (centres undefined) and answer again.
Resp: active

Req: Now consider `CCCCCOc1ccc(/C=N/Nc2cc(C)nc3ccc(Cl)cc23)cc1` and answer again.
Resp: inactive

Req: Now consider `COc1ccc2c(c1)C(=O)c1c-2c(Nc2ccccc2OC)nc2ccccc12` and answer again.
Resp: inactive

====

Test system: SF-539 CNS
Test: NCI tumour cell line growth inhibition, 48 h
Respond with rule met for TGI values of 20 µM and above, rule not met for values below.

Here are 3 compounds together with their reported answers.
- compound: "CN(C)c1ccc(/C=C(\\NC(=O)c2ccccc2)C(=O)NC(CC(=O)O)C(=O)O)cc1 (centres undefined)"
  class-name: "rule met"
- compound: "CCn1cc(C(=O)O)c(=O)c2cc(F)c(N3CCN(S(=O)(=O)c4cccc5ccccc45)CC3)cc21"
  class-name: "rule not met"
- compound: "O=C(/C=C/c1ccc(O)c(O)c1)OCCc1ccc2ccccc2c1"
  class-name: "rule not met"

For the next question, use this compound.
Req: State whether the measured TGI reaches 20 µM, counting equality as reaching it, for `COc1cc2nc(-c3ccc(Cl)cc3)cc(OCCCN3CCOCC3)c2cc1OC`
Resp: rule met

====

Tested on: U251 CNS
Assay: NCI tumour cell line growth inhibition, 48 h
Listing: TGI of selected compounds

- compound: "COc1ccc(OC)c(/C=C/c2nc(=S)n(-c3ccc(Cl)cc3)[nH]2)c1"
  assayed-system: "U251 CNS"
  result: "> 100 µM"
- compound: "O=C(ON=C1c2ccccc2C(Br)C(Br)c2ccccc21)c1ccccc1 (stereo not drawn)"
  assayed-system: "U251 CNS"
  result: "31.6 µM"
- compound: "CCc1cccc(C)c1NC(=O)CCc1nc(=S)[nH][nH]1"
  assayed-system: "U251 CNS"
  result: "> 100 µM"

Req: Which TGI is listed for `CN(C)CCN(c1ccccn1)c1ccccn1` ?
Resp: > 100 µM
